Where do the numbers come from? From patent US20210395235A1.

# target.or.test.system: ALK5 (Homo sapiens)
# Construct: purchased Carna 09-141
# Sequence (P36897 162-503 limits assumed): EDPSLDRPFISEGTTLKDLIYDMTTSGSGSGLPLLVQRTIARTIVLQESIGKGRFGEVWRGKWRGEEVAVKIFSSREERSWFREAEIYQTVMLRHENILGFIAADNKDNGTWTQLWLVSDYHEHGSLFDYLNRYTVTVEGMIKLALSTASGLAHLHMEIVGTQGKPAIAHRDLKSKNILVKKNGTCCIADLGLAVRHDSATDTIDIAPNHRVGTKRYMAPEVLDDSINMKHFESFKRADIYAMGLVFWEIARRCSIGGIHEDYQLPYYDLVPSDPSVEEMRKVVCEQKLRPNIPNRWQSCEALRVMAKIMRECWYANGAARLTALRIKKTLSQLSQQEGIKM
# method.summary: In vitro activity against ALK5 kinase (ADP-Glo Kinase Assay)
# Assay type: biochemical
# experimental.context: 28° C. 120 minutes
# Procedure: For the compounds of the present disclosure prepared in the above examples, each compound was prepared into 10 mM with DMSO, and then diluted to 3.333 μM, 1.111 μM, 370 nM, 123 nM, 41 nM, 14 nM, 4.6 nM, 1.5 nM and 0.5 nM successively. […] The luminescence value of the sample was read from Envision. 2.7.1 Luminescence reading data were copied from the Envision program. 2.7.2 The values of the luminescence reading were converted into the percent inhibition by the following formula. […]
Kindly state IC50 for each of the entries shown.
Give a bare numeral; the unit nM is implied.

Q. Enter recorded IC50 with ALK5 (Homo sapiens) for CC(C)(O)c1cc(-c2ccc3c(Oc4cn(C5CC5)nc4C4CCOCC4)ccnc3c2)ccn1 [Example 16] here.
A. 100

Q. Enter recorded IC50 with ALK5 (Homo sapiens) for O=S1(=O)CCN(c2ccc3c(Oc4cn(C5CC5)nc4C4CCOCC4)ccnc3c2)CC1 [Example 4] here.
A. 250

Q. Enter recorded IC50 with ALK5 (Homo sapiens) for c1cc(Oc2cn(C3CC3)nc2C2CCOCC2)c2ccc(N3CCOCC3)cc2n1 [Example 2] here.
A. 98

Q. Enter recorded IC50 with ALK5 (Homo sapiens) for CC1(O)CCN(c2ccc3c(Oc4cn(C5CC5)nc4C4CCOCC4)ccnc3c2)CC1 [Example 5] here.
A. 110

Q. Enter recorded IC50 with ALK5 (Homo sapiens) for FC(F)(F)Cn1cc2c(n1)CN(c1ccc3c(Oc4cn(C5CC5)nc4C4CCOCC4)ccnc3c1)C2 [Example 6] here.
A. 66

Q. Enter recorded IC50 with ALK5 (Homo sapiens) for COc1cc2nccc(Oc3cn(C4CC4)nc3C3CCOCC3)c2cc1Nc1cnn(C2COC2)c1 [Example 19] here.
A. 10

Q. Enter recorded IC50 with ALK5 (Homo sapiens) for COc1cc2nccc(Oc3cn(C4CC4)nc3C3CCOCC3)c2cc1Nc1cnn(C)c1 [Example 18] here.
A. 6

Q. Enter recorded IC50 with ALK5 (Homo sapiens) for Cn1cc(-c2ccc3c(Oc4cn(C5CC5)nc4C4CCOCC4)ccnc3c2)cn1 [Example 7] here.
A. 5.2

Q. Enter recorded IC50 with ALK5 (Homo sapiens) for CS(=O)(=O)c1ccc(-c2ccc3c(Oc4cn(C5CC5)nc4C4CCOCC4)ccnc3c2)cc1 [Example 15] here.
A. 3.2

Q. Enter recorded IC50 with ALK5 (Homo sapiens) for COc1cc2nccc(Oc3cn(C4CC4)nc3C3CCOCC3)c2cc1C(N)=O [Example 17] here.
A. 66

Q. Enter recorded IC50 with ALK5 (Homo sapiens) for CC(C)(O)c1cc(Nc2ccc3c(Oc4cn(C5CC5)nc4C4CCOCC4)ccnc3c2)ccn1 [Example 1] here.
A. 120

Q. Enter recorded IC50 with ALK5 (Homo sapiens) for FC(F)(F)c1nnc2n1CCN(c1ccc3c(Oc4cn(C5CC5)nc4C4CCOCC4)ccnc3c1)C2 [Example 3] here.
A. 80
